Listed here are compounds together with their documented Stability in Presence of Mn^2 Ions, % Remaining.
# assay summary: Perborate stabilization in the presence of Mn ions (peroxide remaining after hot storage, iodine/starch titration)
# condition label: 5.4×10^-8 mol Mn^II; 4.2×10^-7 mols stabilizer in 100 ml; pH 10.1; 70° C.
# Method: The hydrogen peroxide responsible for the bleaching action in sodium perborate based laundry detergents is decomposed catalytically by transition metal ions such as Mn^II and Cu^II. This degradation can be prevented by complexing the metal ions. […] The percentage of peroxide remaining after storage was determined using a starch/iodine titration procedure.
measured property: Stability in Presence of Mn^2 Ions, % Remaining

{"compound": "O=C(O)CC(C(=O)O)N(CC(=O)O)CC(=O)O (centres unmarked)", "recorded result": "25.6%"}
{"compound": "O=C(O)CN(CCN(CC(=O)O)CC(=O)O)CC(=O)O [EDTA, Ethylenediaminetetraacetic acid, reference compound]", "recorded result": "87.5%"}
{"compound": "O=C(O)CSC(CC(=O)O)C(=O)O (centres unmarked)", "recorded result": "54.5%"}
{"compound": "O=C(O)CC(NC(CC(=O)O)C(=O)O)C(=O)O (centres unmarked)", "recorded result": "13.6%"}
{"compound": "O=C(O)CCN(CC(=O)O)CC(=O)O", "recorded result": "45.0%"}
